Quick reference: relative affinity of the listed items.
test target: T1, HLA-DR3 (HLA-DRB1*03:01) (human)
T1 construct: mature; purified from homozygous EBV-transformed lymphoblastoid cells with antibody L243
procedure text: competition ELISA vs biotin-MT 2-16
No end group written: not given here.
Just the number, please.

Here is how some binders turned out for relative affinity.
binder | relative affinity
QAFSDVILAVNDVDA-NH2 [CCNB1 144-158] | 8
PKYLLGREVTGNMRA-NH2 [CCNB1 189-203] | 764
SKIGEVDVEQHTLAK-NH2 [CCNB1 310-324] | 306
EKLSPEPILVDTASP-NH2 [CCNB1 113-127] | 6
FAFVTDNTYTKHQIR-NH2 [CCNB1 269-283] | 0.1
TGKVIDKKLPKPLEK-NH2 [CCNB1 71-85] | 228
EDLCQAFSDVILAVN-NH2 [CCNB1 140-154] | 161

Query string: Can you share its relative affinity? I mean this binder: PEIGDFAFVTDNTYT-NH2 [CCNB1 264-278]
Result string: 85
